Test: PAMPA permeability
Format: in vitro ADME
Details: pH 7.4; PAMPA, pH7.4; read-out: pH7.4 Papp x 10^-6
experimental.endpoint: Papp

Enquiry: Papp for CC[C@H](CO)Nc1nc(NCc2ccc(-c3ccccn3)cc2)c2ncn(C(C)C)c2n1 [compound 1, reference compound] ?
Return: 45.4 ×10⁻⁶ cm/s

Enquiry: // next record `CC[C@H](CO)Nc1nc(NCc2ccc(-c3cc(=O)cc[nH]3)cc2)c2ncn(C(C)C)c2n1`
Return: < 0.2 ×10⁻⁶ cm/s

Enquiry: Another compound to check: `CC[C@H](CO)Nc1nc(NCc2ccc(-c3ccc(O)cn3)cc2)c2ncn(C(C)C)c2n1`
Return: < 0.3 ×10⁻⁶ cm/s

Enquiry: What do we get for `CC[C@H](CO)Nc1nc(NCc2ccc(-c3ncccc3O)cc2)c2ncn(C(C)C)c2n1` ?
Return: < 0.4 ×10⁻⁶ cm/s

###

Test system: Cyclin K
Assay: Cyclin K levels by Western blot after single-concentration treatment
Format: cell-based, human
Details: HEK293T cells, 1 μM for 2 h, quantified from Western blots, mean ± SD, three independent experiments
Cut-off 30% on Remaining Cyclin K (%), inclusive. At or above means 1; below means 0.

Enquiry: Test whether the compound `CC[C@H](CO)Nc1nc(NCc2ccc(-c3ccc(CC(C)C)cc3)cc2)c2ncn(C(C)C)c2n1` records Remaining Cyclin K (%) of 30% or higher.
Return: 1

Enquiry: Can you handle OCCC1CCCCN1c1cc(NCc2ccc(C3=CCOCC3)cc2)n2ncc(Br)c2n1 (stereo not shown) next?
Return: 1

Enquiry: Input `CC[C@H](CO)Nc1nc(NCc2ccc(-c3ncccc3F)cc2)c2ncn(C(C)C)c2n1`
Return: 0

Enquiry: Next entry: `CC[C@H](CO)Nc1nc(NCc2ccc(-c3cccnc3)cc2)c2ncn(C(C)C)c2n1`
Return: 0

Enquiry: How about `CC[C@H](CO)Nc1nc(NCc2ccc(-c3cc(C#N)ccn3)cc2)c2ncn(C(C)C)c2n1` ?
Return: 0

Enquiry: Ok, now Cc1ccnc(-c2ccc(CNc3cc(N4CCCCC4CCO)nc4c(Br)cnn34)cc2)c1 (stereo not shown)
Return: 0

Enquiry: Next up: `CC[C@H](CO)Nc1nc(NCc2ccc(-c3ncccc3O)cc2)c2ncn(C(C)C)c2n1`
Return: 1

Enquiry: Likewise for `CC[C@H](CO)Nc1nc(NCc2ccc(-c3cccc(F)n3)cc2)c2ncn(C(C)C)c2n1` ?
Return: 0

Enquiry: Next compound up: `CC[C@H](CO)Nc1nc(NCc2ccc(-c3ccncc3)cc2)c2ncn(C(C)C)c2n1`
Return: 0

Enquiry: Same lookup for `CC[C@H](CO)Nc1nc(NCc2ccc(C)cc2)c2ncn(C(C)C)c2n1` , please.
Return: 1

###

Test system: Cyclin K
Test: Cyclin K levels by Western blot after single-concentration treatment
Format: cell-based, human
Details: HEK293T cells, 1 μM for 2 h, quantified from Western blots, mean ± SD, three independent experiments
experimental.endpoint: Remaining Cyclin K (%)
A number alone suffices; assume %.

Enquiry: Which measured Remaining Cyclin K (%) belongs to CC[C@H](CO)Nc1nc(NCc2ccc(-c3cc(C)ccn3)cc2)c2ncn(C(C)C)c2n1 [compound 14] , tested on Cyclin K?
Return: 1

Enquiry: Please give the result for CC[C@H](CO)Nc1nc(NCc2ccc(-c3cn(C)cn3)cc2)c2ncn(C(C)C)c2n1 [compound 30] too.
Return: 38

Enquiry: Let us now turn to CC[C@H](CO)Nc1nc(NCc2ccc(-c3ccc(O)cn3)cc2)c2ncn(C(C)C)c2n1 [compound 8]
Return: 94

Enquiry: Ok, now CCc1ccc(CNc2nc(N[C@H](CC)CO)nc3c2ncn3C(C)C)cc1 [compound 35]
Return: 90
